Tested on: A-beta
test.protocol: Efficacy of compounds to inhibit A-beta concentration (% inhibition vs vehicle control)
Assay type: in vivo, rat
run.conditions: plasma
Below, each of the molecules is paired with its reported Efficacy (% Inhibition, 100 mg/kg) plasma value.
property: Efficacy (% Inhibition, 100 mg/kg) plasma (%)

# molecule, val
data = [
    ("CONC1CCC(NCC(O)C(Cc2cc(F)cc(F)c2)NC(C)=O)(c2cccc(C(C)(C)C)c2)CC1 (single isomer, unassigned) [195-7 Diastereomer A]", 50),
    ("CC(=O)NC(Cc1cc(F)cc(F)c1)C(O)CNC1(c2cccc(C(C)C)c2)CCC(=O)CC1 (stereo not drawn)", 59),
    ("COC1CCC(NCC(O)C(Cc2cc(F)cc(F)c2)NC(C)=O)(c2cccc(C(C)(C)C)c2)CC1 (stereo not drawn)", 49),
    ("CC(=O)NC(Cc1cc(F)cc(F)c1)C(O)CNC1(c2cc(F)cc(C(C)(C)C)c2)CCCCC1 (stereo not drawn)", 30),
    ("CC(=O)NC(Cc1cc(F)cc(F)c1)C(O)CNC1(c2cccc(-n3cccn3)c2)CCCCC1 (stereo not drawn)", 67),
    ("CC(=O)NC(Cc1cc(F)cc(F)c1)C(O)CNC1(c2cccc(C(C)(C)C)c2)CCC(O)CC1 (single isomer, unassigned) [195-5 Diastereomer A]", 55),
    ("CSC1CCC(NCC(O)C(Cc2cc(F)cc(F)c2)NC(C)=O)(c2cccc(C(C)(C)C)c2)CC1 (stereo not drawn)", 38),
    ("CC(=O)NC(Cc1cc(F)cc(F)c1)C(O)CNC1(c2cccc(C(C)(C)C)c2)CCCCC1 (stereo not drawn)", 50),
    ("CC(=O)NC(Cc1cc(F)cc(F)c1)C(O)CNC1(c2cccc(C(C)(C)C)c2)CCC(=O)CC1 (stereo not drawn)", 58),
]
